These measurements were taken from PubChem BioAssay (NCI).

System: SK-MEL-28 melanoma
Assay: NCI tumour cell line growth inhibition, 48 h; in the data active means GI50 below about 0.43 µM; inactive means the rest
The reply should name one outcome from active, inactive

Solved entries (count: 2):
COc1cc(Cl)cc(-c2nn(C(=O)NCCN3CCN(C)CC3)cc2-c2ccncc2)c1 = inactive
Fc1ccc(Oc2nccc(-c3c(-c4ccc(F)cc4)ncn3C3CCNCC3)n2)cc1 = inactive

Query string: Kindly provide the recorded test outcome for the following compound: CCC1=C[C@@H]2CN(C1)Cc1c([nH]c3ccccc13)[C@@](C(=O)OC)(c1cc3c(cc1OC)N(C=O)[C@H]1[C@@](O)(C(=O)OC)[C@H](OC(C)=O)[C@]4(CC)[C@@H]5C[C@@H]5CN5CC[C@]31[C@@H]54)C2
Result string: active

* * *

// reported TGI for each item listed
Test system: SK-MEL-5 melanoma
Test: NCI tumour cell line growth inhibition, 48 h

Solved entries (count: 4):
O=[N+]([O-])c1ccc(Sc2c3ccccc3nc3ccccc23)cc1 = > 100 µM
CC(C)(C)C(=O)Nc1ccccc1I(=O)=O = > 100 µM
CCOP(=O)(CC1CC(O)(CNc2cc(Cl)nc(N)n2)C1)OCC (stereo unspecified) = > 100 µM
O=C1c2cc([N+](=O)[O-])cnc2S(=O)(=O)N1c1ccc(Br)cc1 = > 100 µM

The molecule listed as O=C(Nc1ccccc1)c1cc(S(=O)(=O)Nc2n[nH]c(=O)[nH]2)c(SSc2cc(Cl)c(C(=O)Nc3ccccc3)cc2S(=O)(=O)Nc2n[nH]c(=O)[nH]2)cc1Cl shows TGI equal to > 100 µM

The molecule listed as O=C(/C=C/C=C/c1ccccc1)CCc1ccccc1 shows TGI equal to > 100 µM

The molecule listed as CN(NC(=O)CC(=O)NN(C)C(=S)c1ccccc1)C(=S)c1ccccc1 shows TGI equal to > 100 µM

The molecule listed as CCOC(=O)Cc1csc(/N=C2\NC(=O)/C(=C3\C(=O)N(C)c4ccccc43)S2)n1 shows TGI equal to > 100 µM

The molecule listed as COC(=O)C1=COC(C)C2C[n+]3ccc4c([nH]c5ccccc54)c3CC12 (stereo unspecified) shows TGI equal to > 100 µM

The molecule listed as Cc1ccc2ccc(=O)oc2c1 shows TGI equal to > 100 µM

The molecule listed as NNC(=O)Cc1cccnc1 shows TGI equal to > 100 µM

The molecule listed as CN(C)NC1=NS(=O)(=O)c2cc3c(cc2S1)N(N(C)C)C(=O)c1cc2c(cc1N(N(C)C)C3=O)SC(NN(C)C)=NS2(=O)=O shows TGI equal to > 10 µM

The molecule listed as COC(=O)COc1ccc(/C=C2\N=C(c3ccccc3)N(c3cc(C(F)(F)F)ccc3Cl)C2=O)cc1 shows TGI equal to > 100 µM

The molecule listed as CN1c2ccccc2C(=O)NC12CCN(Cc1ccccc1)CC2 shows TGI equal to > 100 µM

The molecule listed as COC(=O)C1=C(O)C(C(=O)OC)[C@]2(O)[C@H](C(=O)OC)[C@H]1C[C@@H](c1cccc(OC)c1)[C@H]2C(=O)OC (stereo partly specified) shows TGI equal to > 100 µM

The molecule listed as COc1ccc(C2c3cc4c(cc3OC(NNC(N)=O)C2C)OCO4)cc1 (stereo unspecified) shows TGI equal to > 63.2 µM

The molecule listed as NC(Cc1ccccc1)=NCC(=O)O shows TGI equal to > 100 µM

The molecule listed as CC(C)=CCC/C(=C\CC/C(=C\CCc1ccoc1)C(=O)O)C(=O)O shows TGI equal to > 100 µM

The molecule listed as CCOC(=O)/C(=C\c1ccc(OCc2ccccc2)c(OC)c1)C(=O)c1ccccc1 shows TGI equal to 31.9 µM

The molecule listed as CC([C@H]1CCC2C3CCC4C[C@@H](NC=O)CC[C@]4(C)C3CC[C@@]21C)N(C)C (stereo partly specified) shows TGI equal to 2.74 µM

The molecule listed as N#CC(c1nc2ccccc2s1)c1nc(Cl)ncc1Br (stereo unspecified) shows TGI equal to 43.5 µM
